Test system: Wolbachia pipientis
experimentSummary: Anti-Wolbachia Cell-Based Screen
Assay type: functional
Parameters: scale not given: in the data most compounds retested in dose-response had high values
experimentalConditions: 5 µM
In all, about 48,000 compounds went through this assay and about 13,000 (27%) showed an effect of 50% or more. Some of the results follow.
assayMetric: Percent Effect
Answer by giving the amount and then stating its unit.

Sample answers from the record:
[[record]]
molecule = "Cc1ccc(-n2c(COC(C)C)n[nH]c2=O)cc1"
assaymetric = "Percent Effect"
valuereported = "-8.363%"

[[record]]
molecule = "CN(Cc1cccc(C(=O)Nc2ccnn2C)c1)CC1(C)COC1"
assaymetric = "Percent Effect"
valuereported = "30.85%"

[[record]]
molecule = "O=C(c1ccc[nH]1)N1CCc2nnc(Cn3cccc3)n2CC1"
assaymetric = "Percent Effect"
valuereported = "104.6%"

[[record]]
molecule = "O=C(c1ccc[nH]1)N1CCc2ncc(Cn3cccn3)n2CC1"
assaymetric = "Percent Effect"
valuereported = "112.6%"

[[record]]
molecule = "CN(Cc1n[nH]c(=O)n1CCc1ccccc1F)S(C)(=O)=O"
assaymetric = "Percent Effect"
valuereported = "-6.047%"


Recorded Percent Effect (molecule `Cc1ccc(F)cc1-n1c(COC(C)C)n[nH]c1=O` ): 6.19%

Reported Percent Effect of `CCN(C)Cc1n[nH]c(=O)n1-c1cc(F)ccc1C` : 106.9%

# Percent Effect of `O=C1CCCN1Cc1nnc2n1CCCN(C(=O)c1ccc[nH]1)C2` = 114.8%

Lab book: Percent Effect of Cn1cc(CNC(=O)C2COCC(=O)N2Cc2ccccc2)cn1 (configuration not stated) noted as -3.917%

Recorded Percent Effect (molecule `CN(CC1(C)COC1)C(=O)c1cc(-c2ccnn2C)nc2ccccc12` ): 116.9%

GET /value?item= `COc1ccc(-n2c(COC(C)C)n[nH]c2=O)cc1` &field=Percent Effect returns 8.862%

Note to self: Percent Effect recorded for `O=C(c1c[nH]cn1)N1CCCn2c(nnc2Cn2cccc2)C1` was 4.942%

* * *

System: Wolbachia pipientis
experimentSummary: Anti-Wolbachia Cell-Based Screen
Type: functional
Parameters: scale not given: in the data most compounds retested in dose-response had high values
experimentalConditions: 5 µM
The campaign covered roughly 48,000 compounds. About 13,000 (27%) showed an effect of 50% or more. This is one part of the list.
assayMetric: Percent Effect (%)
Give a bare numeral; the unit % is implied.

Recorded results for 4 compounds are shown here.
[[record]]
compound = "CC(=O)Nc1nc(CN(C)CC2CCCN2c2cccnn2)cs1 (stereo not drawn)"
system = "Wolbachia pipientis"
assaymetric = "Percent Effect"
readoutunits = "%"
valuereported = 10.35

[[record]]
compound = "CC(C)(C)c1noc(-c2nc3c([nH]2)CCCNC3=O)n1"
system = "Wolbachia pipientis"
assaymetric = "Percent Effect"
readoutunits = "%"
valuereported = 2.046

[[record]]
compound = "CCc1n[nH]c(C2CN(C(=O)c3cnns3)CCO2)n1 (stereo not drawn)"
system = "Wolbachia pipientis"
assaymetric = "Percent Effect"
readoutunits = "%"
valuereported = -10.08

[[record]]
compound = "Cc1noc(COCC(=O)Nc2ccc(Br)c(C)n2)n1"
system = "Wolbachia pipientis"
assaymetric = "Percent Effect"
readoutunits = "%"
valuereported = 11.2


Percent Effect reported for this compound `CC(C)C(=O)Nc1cc(C(C)(C)C)nn1-c1ccccn1` : 3.907

Input `COCC(=O)N1CCCn2c(CN3CCCCC3)nnc2C1.O=C(O)C(F)(F)F` . Output Percent Effect: -12.43

For `O=C(O)C(F)(F)F.O=C(O)C(F)(F)F.O=C(c1ccncc1)N1CCCn2c(CN3CCCC3)nnc2C1` the compound record lists Percent Effect as -6.384

Per the record, O=C(Nc1ccccc1Oc1cccc(F)c1)NC1CCS(=O)(=O)C1 (stereo not drawn) has Percent Effect of 9.337

Item: `CCOCC(=O)N1CCCn2c(nnc2Cn2cccc2)C1` | Percent Effect: 93.36

Summary for this compound, CCC(C(=O)N(Cc1ccccc1OC)C1CC1)n1cccn1 (stereo not drawn) : Percent Effect is -4.851

// sample `O=C(O)C1(Cc2ccccc2Cl)CCN(c2ncccc2F)CC1` , its Percent Effect was -2.228

Query Cc1occc1C(=O)N1Cc2nccn2CC(CN2CCOCC2)C1.O=C(O)C(F)(F)F (stereo not drawn) yields Percent Effect of -15.88

Record CCc1n[nH]c(C2CN(C(=O)c3ccsc3)CCO2)n1 (stereo not drawn) , field Percent Effect: -7.314

So for O=C(C1CCCO1)N1CCCn2c(nnc2Cn2cccc2)C1 (stereo not drawn) , the logged Percent Effect turned out to be -19.79

Consider `Cc1ccc(CN(Cc2ccccn2)C(=O)[C@H]2CC[C@@H](N)C2)s1` . Its measured Percent Effect is -33.4

Record summary for `COc1cc(-c2nc3c([nH]2)CCCNC3=O)ccc1OC(C)C` : reported Percent Effect = 84.8

Entry `COCC(=O)N1CCCn2c(CN3CCCC3)nnc2C1` — recorded Percent Effect = 85.92

Record `O=C(CC1CC1)N1CCCn2c(nnc2Cn2cccc2)C1` , field Percent Effect: -9.469
